Attribution: ChEMBL document CHEMBL3826910

Test: Clearance in Sprague-Dawley rat at 1 mg/kg, iv
Assay type: ADME, organism-based
Settings: in vivo
Quantity: clearance (mL/min/kg)

>>> readout_number("C[C@@H](Oc1ccc2[nH]nc(-c3nc4cc(N5CCN(C)CC5)ccc4[nH]3)c2c1)c1c(Cl)cncc1Cl")
33.3
>>> readout_number("C[C@@H](Oc1ccc2[nH]nc(-c3nc4cc(CCO)ccc4[nH]3)c2c1)c1c(Cl)cncc1Cl")
28.3

---

Experiment: Cmax in Sprague-Dawley rat at 5 mg/kg, po
Format: ADME, organism-based
Design: dose 5 mg/kg, route oral
Conditions: in vivo
Quantity: Cmax (ng/mL)

I. C[C@@H](Oc1ccc2[nH]nc(-c3nc4cc(CCO)ccc4[nH]3)c2c1)c1c(Cl)cncc1Cl
II. C[C@@H](Oc1ccc2[nH]nc(-c3nc4cc(N5CCN(C)CC5)ccc4[nH]3)c2c1)c1c(Cl)cncc1Cl
// query Of I and II , which carries the smaller reported Cmax figure? Your choice should be expressed through its label.
// result II
(II: 97.2 ng/mL, I: 195 ng/mL)

---

Assay: Cmax in Sprague-Dawley rat at 1 mg/kg, iv
Format: ADME, organism-based
Design: dose 1 mg/kg, route intravenous
Details: in vivo
Quantity: Cmax (ng/mL)

P. C[C@@H](Oc1ccc2[nH]nc(-c3nc4cc(N5CCN(C)CC5)ccc4[nH]3)c2c1)c1c(Cl)cncc1Cl
Q. C[C@@H](Oc1ccc2[nH]nc(-c3nc4cc(CCO)ccc4[nH]3)c2c1)c1c(Cl)cncc1Cl
// query Of P and Q , which carries the smaller reported Cmax figure? Your choice should be expressed through its label.
// result P

---

Biological target: Platelet-derived growth factor receptor alpha (Homo sapiens, UniProt P16234)
Sequence (P16234 whole entry): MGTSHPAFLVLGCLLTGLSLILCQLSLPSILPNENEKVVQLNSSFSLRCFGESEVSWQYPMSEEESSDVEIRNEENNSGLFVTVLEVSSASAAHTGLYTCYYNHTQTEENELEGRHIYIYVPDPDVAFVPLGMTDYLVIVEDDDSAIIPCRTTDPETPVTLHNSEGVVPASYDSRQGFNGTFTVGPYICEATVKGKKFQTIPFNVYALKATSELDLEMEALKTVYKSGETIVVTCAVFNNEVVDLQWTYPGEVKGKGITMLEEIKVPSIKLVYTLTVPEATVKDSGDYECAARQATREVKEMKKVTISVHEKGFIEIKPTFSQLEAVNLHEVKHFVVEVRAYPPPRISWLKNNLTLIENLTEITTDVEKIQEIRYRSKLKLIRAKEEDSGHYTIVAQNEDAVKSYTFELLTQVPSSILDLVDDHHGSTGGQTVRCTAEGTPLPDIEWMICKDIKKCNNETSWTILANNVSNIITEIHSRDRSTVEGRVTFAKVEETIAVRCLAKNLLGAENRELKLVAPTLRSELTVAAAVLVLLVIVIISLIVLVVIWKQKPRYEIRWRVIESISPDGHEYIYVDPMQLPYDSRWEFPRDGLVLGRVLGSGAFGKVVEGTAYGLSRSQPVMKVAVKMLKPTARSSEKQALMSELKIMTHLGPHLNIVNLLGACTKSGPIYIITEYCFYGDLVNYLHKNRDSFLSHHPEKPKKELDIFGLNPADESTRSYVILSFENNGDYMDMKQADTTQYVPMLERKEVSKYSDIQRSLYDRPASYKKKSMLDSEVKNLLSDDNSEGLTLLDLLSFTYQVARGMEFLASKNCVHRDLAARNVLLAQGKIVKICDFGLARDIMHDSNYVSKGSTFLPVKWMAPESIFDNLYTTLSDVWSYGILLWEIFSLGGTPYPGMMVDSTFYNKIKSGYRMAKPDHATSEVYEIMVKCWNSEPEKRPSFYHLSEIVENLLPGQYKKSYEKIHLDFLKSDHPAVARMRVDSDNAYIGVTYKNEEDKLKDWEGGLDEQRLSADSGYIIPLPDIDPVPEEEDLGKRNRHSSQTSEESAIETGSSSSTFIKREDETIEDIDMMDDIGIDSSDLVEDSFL
Experiment: Inhibition of recombinant human PDGFRalpha using poly (Glu, Tyr) 4:1 as substrate after 60 mins by ELISA
Quantity: pIC50
Schema: pIC50 number; meaning minus log10 of the concentration expressed in molar units.

// query Name the reported pIC50 value associated with the compound C[C@@H](Oc1ccc2[nH]nc(-c3nc4cc(N5CCN(C)CC5)ccc4[nH]3)c2c1)c1c(Cl)cncc1Cl
// result 6.11

---

Target: Vascular endothelial growth factor receptor 1 (Homo sapiens)
Sequence (P17948 whole entry): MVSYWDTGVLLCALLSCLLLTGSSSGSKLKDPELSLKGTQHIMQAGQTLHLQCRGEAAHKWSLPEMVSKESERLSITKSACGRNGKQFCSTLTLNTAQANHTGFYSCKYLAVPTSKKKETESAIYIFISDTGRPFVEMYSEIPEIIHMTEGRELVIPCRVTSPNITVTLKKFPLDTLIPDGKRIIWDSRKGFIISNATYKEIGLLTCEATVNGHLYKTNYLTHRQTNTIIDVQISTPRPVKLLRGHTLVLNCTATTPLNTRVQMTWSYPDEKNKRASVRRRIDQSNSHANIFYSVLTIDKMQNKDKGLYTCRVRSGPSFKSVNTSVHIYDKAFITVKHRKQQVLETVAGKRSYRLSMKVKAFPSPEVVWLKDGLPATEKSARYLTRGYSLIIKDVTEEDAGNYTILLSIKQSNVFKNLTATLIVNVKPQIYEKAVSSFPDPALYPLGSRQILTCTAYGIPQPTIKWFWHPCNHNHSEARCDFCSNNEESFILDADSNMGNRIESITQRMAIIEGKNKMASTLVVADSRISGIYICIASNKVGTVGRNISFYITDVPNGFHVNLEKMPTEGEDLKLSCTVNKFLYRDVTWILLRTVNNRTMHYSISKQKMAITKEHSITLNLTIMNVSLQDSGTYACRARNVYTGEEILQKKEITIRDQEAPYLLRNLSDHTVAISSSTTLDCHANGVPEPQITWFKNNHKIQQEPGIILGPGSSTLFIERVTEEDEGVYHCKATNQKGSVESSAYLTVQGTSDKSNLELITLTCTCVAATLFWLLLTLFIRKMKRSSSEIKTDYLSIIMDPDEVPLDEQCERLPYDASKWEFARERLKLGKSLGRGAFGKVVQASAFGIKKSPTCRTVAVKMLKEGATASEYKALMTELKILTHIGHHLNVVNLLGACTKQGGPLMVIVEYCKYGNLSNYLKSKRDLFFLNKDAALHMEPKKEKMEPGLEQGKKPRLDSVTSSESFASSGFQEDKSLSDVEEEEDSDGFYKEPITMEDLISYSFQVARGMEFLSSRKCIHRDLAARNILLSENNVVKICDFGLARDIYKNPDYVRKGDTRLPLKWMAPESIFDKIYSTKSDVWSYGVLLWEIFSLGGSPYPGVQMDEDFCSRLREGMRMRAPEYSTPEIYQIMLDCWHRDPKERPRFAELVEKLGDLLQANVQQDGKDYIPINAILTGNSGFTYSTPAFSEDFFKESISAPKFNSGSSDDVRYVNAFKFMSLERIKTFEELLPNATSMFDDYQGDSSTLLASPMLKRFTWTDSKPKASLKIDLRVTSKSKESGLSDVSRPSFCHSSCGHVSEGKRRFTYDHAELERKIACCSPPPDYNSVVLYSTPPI
Experiment: Inhibition of recombinant human Flt1 using poly (Glu, Tyr) 4:1 as substrate after 60 mins by ELISA
pIC50: −log10 of the molar value.
Quantity: pIC50

// query Name the reported pIC50 value associated with the molecule C[C@@H](Oc1ccc2[nH]nc(-c3nc4cc(N5CCN(C)CC5)ccc4[nH]3)c2c1)c1c(Cl)cncc1Cl
// result < 7.00

---

Target: Vascular endothelial growth factor receptor 2 (Homo sapiens)
Sequence (P35968 whole entry): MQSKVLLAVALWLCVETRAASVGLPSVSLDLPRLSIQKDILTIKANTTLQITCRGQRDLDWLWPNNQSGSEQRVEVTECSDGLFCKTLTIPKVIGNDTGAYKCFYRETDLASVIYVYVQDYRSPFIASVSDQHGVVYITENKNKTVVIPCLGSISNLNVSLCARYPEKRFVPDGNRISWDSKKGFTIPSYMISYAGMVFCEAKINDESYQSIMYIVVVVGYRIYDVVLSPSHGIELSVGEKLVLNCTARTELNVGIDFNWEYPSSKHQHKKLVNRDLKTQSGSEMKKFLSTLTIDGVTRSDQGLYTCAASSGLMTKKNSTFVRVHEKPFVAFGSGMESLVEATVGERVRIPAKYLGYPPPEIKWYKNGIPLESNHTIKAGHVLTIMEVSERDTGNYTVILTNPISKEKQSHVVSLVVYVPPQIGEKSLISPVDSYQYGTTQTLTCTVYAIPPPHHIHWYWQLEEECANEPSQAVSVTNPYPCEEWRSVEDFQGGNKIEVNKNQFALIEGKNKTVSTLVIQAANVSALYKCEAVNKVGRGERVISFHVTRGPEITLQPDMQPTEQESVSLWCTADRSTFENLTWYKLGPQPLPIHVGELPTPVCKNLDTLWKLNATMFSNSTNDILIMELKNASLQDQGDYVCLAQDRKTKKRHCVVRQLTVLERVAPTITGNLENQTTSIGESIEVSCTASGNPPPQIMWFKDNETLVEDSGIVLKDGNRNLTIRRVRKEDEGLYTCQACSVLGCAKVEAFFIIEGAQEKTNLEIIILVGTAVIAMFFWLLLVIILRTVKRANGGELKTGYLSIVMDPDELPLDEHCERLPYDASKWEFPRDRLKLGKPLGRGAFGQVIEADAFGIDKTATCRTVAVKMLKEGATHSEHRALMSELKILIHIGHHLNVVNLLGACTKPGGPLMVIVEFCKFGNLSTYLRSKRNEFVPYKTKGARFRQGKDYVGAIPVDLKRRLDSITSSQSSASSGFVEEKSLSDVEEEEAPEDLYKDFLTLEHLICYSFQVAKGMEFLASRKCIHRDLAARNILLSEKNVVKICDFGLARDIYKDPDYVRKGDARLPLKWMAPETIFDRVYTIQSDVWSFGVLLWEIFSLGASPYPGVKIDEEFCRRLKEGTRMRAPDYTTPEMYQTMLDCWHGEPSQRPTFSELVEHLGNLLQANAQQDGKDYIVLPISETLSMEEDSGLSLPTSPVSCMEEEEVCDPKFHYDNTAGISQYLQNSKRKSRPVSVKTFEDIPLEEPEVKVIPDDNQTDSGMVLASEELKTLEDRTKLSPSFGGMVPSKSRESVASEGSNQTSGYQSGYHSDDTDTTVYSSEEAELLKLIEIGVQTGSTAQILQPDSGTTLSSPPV
Experiment: Inhibition of recombinant human VEGFR2 using poly (Glu, Tyr) 4:1 as substrate after 60 mins by ELISA
Quantity: IC50 (nM)

Check out these entries, answers already filled in.
>>> readout_number("CC(Oc1ccc2[nH]nc(-c3nc4cc(N5C[C@@H](C)N[C@@H](C)C5)ccc4[nH]3)c2c1)c1c(Cl)cncc1Cl (stereo partly drawn)")
9
>>> readout_number("C[C@@H](Oc1ccc2[nH]nc(/C=C/c3cnn(CCO)c3)c2c1)c1c(Cl)cncc1Cl")
5.8
>>> readout_number("CC(Oc1ccc2[nH]nc(-c3nc4cc(CCO)ccc4[nH]3)c2c1)c1c(Cl)cncc1Cl (stereo not drawn)")
12.6
>>> readout_number("CC(Oc1ccc2[nH]nc(-c3nc4cc(N5CCN(C)CC5)ccc4[nH]3)c2c1)c1c(Cl)cncc1Cl (stereo not drawn)")
8
>>> readout_number("CC(Oc1ccc2[nH]nc(-c3nc4cc(C5CCN(C)CC5)ccc4[nH]3)c2c1)c1c(Cl)cncc1Cl (stereo not drawn)")
7.8

A. Fc1ccc2c(-c3nc4cc(N5CCC(N6CCCCC6)CC5)ccc4[nH]3)[nH]nc2c1
B. C[C@@H](Oc1ccc2[nH]nc(-c3nc4cc(N5CCN(C)CC5)ccc4[nH]3)c2c1)c1c(Cl)cncc1Cl
C. CC(Oc1ccc2[nH]nc(-c3nc4cc(N(C)C(=O)CN(C)C)ccc4[nH]3)c2c1)c1c(Cl)cncc1Cl (stereo not drawn)
// query I would appreciate it if you could sort these 3 compounds by IC50, starting from the smallest number. I'd appreciate it if you listed the labels in the requested order.
// result C, B, A
(C: 2.5 nM, B: 7.5 nM, A: 16.4 nM)
